# ASSAY EXPLANATION: Clearance in Beagle dog at 0.25 mg/kg, iv by LC-MS/MS analysis
# Assay type: ADME, organism-based, Canis lupus familiaris
# CONDITION SET: in vivo
ATTRIBUTE MEASURED: clearance (mL/min/kg)

>>> experimental_result("CC(C)(O)C(=O)N1CC2(C1)C(=O)N(Cc1nc3cc(Cl)ccc3n1CCCC(F)(F)F)c1ccccc12")
3.56
>>> experimental_result("CS(=O)(=O)N1CC2(C1)C(=O)N(Cc1nc3cc(Cl)ccc3n1CCCC(F)(F)F)c1ccccc12")
0.46
>>> experimental_result("O=C1N(Cc2nc3cc(Cl)ccc3n2CCCC(F)(F)F)c2cnccc2C12CN(S(=O)(=O)C1CC1)C2")
0.99
>>> experimental_result("CC(C)C(=O)N1CC2(C1)C(=O)N(Cc1nc3cc(Cl)ccc3n1CCCCF)c1cnccc12")
11.8
>>> experimental_result("CC(C)NC(=O)N1CC2(C1)C(=O)N(Cc1nc3cc(Cl)ccc3n1CCCC(F)(F)F)c1cnccc12")
14.6
>>> experimental_result("CC(C)NC(=O)N1CC2(C1)C(=O)N(Cc1nc3cc(Cl)ccc3n1CCCC#N)c1ccccc12")
4.9
